Entry source: the supplement of paper PMC12042874

assay: amyloid nucleation score (Sup35N fusion, yeast selection) (log enrichment); library NNK2; higher = more nucleation; inactive = no reads after selection;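 further: zero at mode of non-aggregating sequences after 7 days selection at 30°C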

- Record Sequence: "LLSVASRLLVPFRERGNGS"
  amyloid nucleation score: -0.256
- Record Sequence: "ICGGTSESGRYRKAGQGV"
  amyloid nucleation score: 1.07
- Record Sequence: "YSGAYRLHYGFHIIICVCRW"
  amyloid nucleation score: 3.21
- Record Sequence: "LLNYTRGACCDRTRVQFSTT"
  amyloid nucleation score: -0.079
- Record Sequence: "TDLYCFSSI"
  amyloid nucleation score: -1.29
- Record Sequence: "VLWCGDLFAYLYMYVFSSNS"
  amyloid nucleation score: 7.52
- Record Sequence: "HSRHHWYPSWQFWMLRPQNC"
  amyloid nucleation score: 1.4

----------
assay: amyloid nucleation score (Sup35N fusion, yeast selection) (log enrichment); library NNK1; higher = more nucleation; inactive = no reads after selection
Threshold check on amyloid nucleation score: at or above 0.7 gives Met, strictly below gives Not met.

- Record Sequence: "YYCRNPRSMG"
  Class: "Not met"
- Record Sequence: "TFECIIWFLGATVMSMQLFI"
  Class: "Met"
- Record Sequence: "YVDIPVVVS"
  Class: "Not met"
- Record Sequence: "ILCIESLSGFPWLICIENSL"
  Class: "Not met"
- Record Sequence: "TWIMIGDHFVAGLGYRERD"
  Class: "Not met"
- Record Sequence: "ICFNFYITYSASDALSRTCY"
  Class: "Met"
- Record Sequence: "FMGIGPDVEDLLW"
  Class: "Not met"
- Record Sequence: "TSGFKLGRSGGYVCRS"
  Class: "Met"
- Record Sequence: "EIMKCFNFTHMVEMKSMKRN"
  Class: "Met"
- Record Sequence: "FTQRSSVR"
  Class: "Not met"
- Record Sequence: "PAVCLCNGRMDVSKNLWLCF"
  Class: "Met"
- Record Sequence: "RFDYGGIESGVAGCVRVRDY"
  Class: "Not met"
- Record Sequence: "MKVIDFVGFPFMGWRKWKTW"
  Class: "Not met"
- Record Sequence: "SDGWCRLRCES"
  Class: "Not met"
- Record Sequence: "NMVGFILLGY"
  Class: "Not met"
- Record Sequence: "PDAFKSLLLERRAWIKFVSK"
  Class: "Met"
- Record Sequence: "PSRWIAVPSMEVKVL"
  Class: "Not met"

----------
Reported amyloid nucleation score values for the following substances.
experiment: amyloid nucleation score (Sup35N fusion, yeast selection) (log enrichment); library NNK1; higher = more nucleation; inactive = no reads after selection

- Substance: "RSVFEKNWVGCITEMTIWFA"
  amyloid nucleation score: -0.47
- Substance: "VCSRLDSEQHDHECASQELM"
  amyloid nucleation score: 0.106
- Substance: "EIWWMVKVQLSVEYSSGNRL"
  amyloid nucleation score: 1.16
- Substance: "CRKVITRVGSVTVTGGFYLI"
  amyloid nucleation score: -0.374
- Substance: "TRQNMFGIHHPWYNRRIS"
  amyloid nucleation score: -0.458
- Substance: "ATRVFLHIATQRSNLAYLPN"
  amyloid nucleation score: -0.189
- Substance: "NAVSIRGLRVDRQN"
  amyloid nucleation score: 0.112
- Substance: "SSIIILSNMLTYK"
  amyloid nucleation score: 3.61
